Just for reference, patent US20130122013A1 is where these values come from.

Measured EC50 of inhibition of mature hepcidin induced increase in cellular ferritin, Caco-2 cells accompanies every entry in the list below.
- SYSTEM: T1, human ferroportin 1 (human, UniProt Q9NP59 1-571)
- T1 sequence: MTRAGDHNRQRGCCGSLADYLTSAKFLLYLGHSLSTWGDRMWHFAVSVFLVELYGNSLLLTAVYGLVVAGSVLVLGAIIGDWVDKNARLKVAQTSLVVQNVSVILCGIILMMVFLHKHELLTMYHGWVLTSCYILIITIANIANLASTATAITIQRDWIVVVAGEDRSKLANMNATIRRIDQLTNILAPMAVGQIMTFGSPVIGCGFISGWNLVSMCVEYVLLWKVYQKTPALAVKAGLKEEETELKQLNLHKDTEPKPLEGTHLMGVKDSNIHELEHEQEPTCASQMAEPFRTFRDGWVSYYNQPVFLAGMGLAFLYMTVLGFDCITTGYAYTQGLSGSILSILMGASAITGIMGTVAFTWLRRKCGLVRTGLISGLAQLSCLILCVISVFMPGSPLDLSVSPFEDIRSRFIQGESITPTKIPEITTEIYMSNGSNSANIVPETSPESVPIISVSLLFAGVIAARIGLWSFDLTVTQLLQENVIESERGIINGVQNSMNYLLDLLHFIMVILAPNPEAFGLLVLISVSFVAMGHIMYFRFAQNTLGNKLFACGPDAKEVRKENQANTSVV
- EXPERIMENTAL_DETAILS: cell-based or functional assay
Quick reminder: number only, in nM, skip the unit.

Use these answered entries as a reference point.
Mab Combi11 (antibody, human IgG4 S228P, kappa, F234A L235A, V domains shown) VH: QVQLVQSGAEVKKPGSSVKVSCKASGYAFTSFLIEWVRQAPGQGLEWMGTSNPRTGRTKYKSKFRGRVTITADKSTSTAYMELSSLRSEDTAVYYCAREFFDYWGQGTTVTVSS VL: DIQMTQSPSSLSASVGDRVTITCRASKSISKYTAWYQQKPGKAPKLLIYAGSKRHWGVPSRFSGSGSGTDFTLTISSLQPEDFATYYCQQHNEYPYTFGGGTKVEIKR; 28
Mab 3D8 (antibody, human IgG4 S228P, kappa, F234A L235A, V domains shown, Humanized form of mouse 1G9 with human heavy chain framework VH1-69 and light chain framework O2; also called human 3D8) VH: QVQLVQSGAEVKKPGSSVKVSCKASGYAFTSFLIEWVRQAPGQGLEWMGTSNPRTGGTKYKEKFRGRVTITADKSTSTAYMELSSLRSEDTAVYYCAREFFDYWGQGTTVTVSS VL: DIQMTQSPSSLSASVGDRVTITCRASKSISKYTAWYQQKPGKAPKLLIYAGSKLHSGVPSRFSGSGSGTDFTLTISSLQPEDFATYYCQQHNEYPYTFGGGTKVEIKR; 360
Mab L2.2-4 (antibody, human IgG4 S228P, kappa, F234A L235A, V domains shown) VH: QVQLVQSGAEVKKPGSSVKVSCKASGYAFTSFLIEWVRQAPGQGLEWMGTSNPRTGGRKYKEKFRGRVTITADKSTSTAYMELSSLRSEDTAVYYCAREFFDYWGQGTTVTVSS VL: DIQMTQSPSSLSASVGDRVTITCRASKSISKYTAWYQQKPGKAPKLLIYAGSKLRSGVPSRFSGSGSGTDFTLTISSLQPEDFATYYCQQHNEYPYTFGGGTKVEIKR; 193

Proceeding to the next binder to report its EC50 of inhibition of mature hepcidin induced increase in cellular ferritin, Caco-2 cells.
GET /value?item= Mab 4A10-3 (antibody, human IgG4 S228P, kappa, F234A L235A, V domains shown) VH: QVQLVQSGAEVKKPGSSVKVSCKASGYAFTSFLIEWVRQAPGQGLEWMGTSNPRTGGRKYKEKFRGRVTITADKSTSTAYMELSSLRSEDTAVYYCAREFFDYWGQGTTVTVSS VL: DIQMTQSPSSLSASVGDRVTITCRASKSISKYTAWYQQKPGKAPKLLIYAGSKLHWGVPSRFSGSGSGTDFTLTISSLQPEDFATYYCQQHNEYPYTFGGGTKVEIKR &field=EC50 of inhibition of mature hepcidin induced increase in cellular ferritin, Caco-2 cells returns 37
